- Test system: A2780/cp70
- assay_explanation: Inhibition of cell growth, cisplatin resistant A2780/cp70 cell line
- Type: cell-based, human
- applied_conditions: Homo sapiens, A2780/CP70, read-out: Inhibition of cell growth A2780/cp70 nM (IC50)
Exercise: for every item that follows, state its recorded IC50.

Task: Please report the recorded IC50 for O=C1c2ccccc2C(=O)c2c(NCCN3CCCC3CCl)cccc21 (stereo not shown) [CAQ191M] .
Output: > 1000 nM

Task: Consider the compound O=C1c2c(O)ccc(O)c2C(=O)c2c(NCCN3CCCCC3CCl)ccc(NCCN3CCCCC3CCl)c21 (stereo not shown) [CAQ190M] and give its measured IC50.
Output: > 1000 nM

Task: Data request, read-out IC50, for O=C1c2c(O)ccc(O)c2C(=O)c2c(NCCN3CCCC(CCl)C3)ccc(NCCN3CCCC(CCl)C3)c21 (stereo not shown)
Output: > 1000 nM

Task: So what does the record say about IC50 for O=C1c2c(O)ccc(O)c2C(=O)c2c(NCCN3CCCC3CCl)ccc(NCCN3CCCC3CCl)c21 (stereo not shown) [CAQ177M] ?
Output: 442 nM
